All values here come from patent US20220380341A1.

Exercise: state measured pKd for each of the molecules provided.
Target: HIV-1 NefNL4-3 (Human immunodeficiency virus type 1 group M subtype B, UniProt P03406, A33V/T15A/T51N/V11I)
Experiment: Surface plasmon resonance binding to recombinant full-length Nef (NL4-3)
Conditions: read-out: Nef NL4-3 Binding, SPR 1:1 or 2-site fitting KD1
Numbers only, as −log10 of the molar value.

{"MOLECULE": "Oc1c(CCc2ccc(F)cc2)c(C2CCN(c3ncccn3)CC2)nn1-c1nc2ccccc2[nH]1 [Compound I-903]", "RECORDED MEASUREMENT": 5.00}
{"MOLECULE": "CC(C)(C)OC(=O)N1CCCC(c2nn(-c3nc4ccccc4[nH]3)c(O)c2CCc2ccc(F)cc2)C1 (stereo not shown) [Compound I-755]", "RECORDED MEASUREMENT": 7.28}
{"MOLECULE": "Oc1c(Cc2ccc(F)c(F)c2)c(C2CCN(CC(F)(F)F)CC2)nn1-c1nc2ccccc2[nH]1 [Compound I-1001]", "RECORDED MEASUREMENT": 6.59}

Query: Quick check: pKd of Oc1c(CCc2ccc(F)cc2)c(C2CCCNC2)nn1-c1nc2ccccc2[nH]1 (stereo not shown) [Compound I-502] ?
Response: 5.61
